Tested on: smallflower umbrella sedge
Experiment: Test C flooded paddy test
Format: in vivo, Cyperus difformis
Settings: 500 g ai/ha, visual rating after 12 to 14 days, scale 0 to 100 (0 no effect, 100 complete control)
Measured quantity: Plant response rating, Sedge, Umbrella
Just the number, please, no unit after it.

stdin: Requested field: Plant response rating, Sedge, Umbrella. Item: `CCNC(=O)c1ccc(F)c(NC(=O)c2c3c(nn2CC)C(C)(C)CC3)c1`
stdout: 50

stdin: Fill in: Plant response rating, Sedge, Umbrella of `CCCN1CCc2c(NC(=O)c3cc(C(C)(C)C)nn3CC)cccc2C1=O` is ___
stdout: 80

stdin: Quick check: Plant response rating, Sedge, Umbrella of `CCNC(=O)c1cccc(NC(=O)c2sc(C(C)(C)C)nc2CC)c1` ?
stdout: 90

stdin: Give its Plant response rating, Sedge, Umbrella value. Item: `CCn1nc(C(C)(C)C)cc1C(=O)Nc1cccc(C(=O)N2CCCC2)n1`
stdout: 70

stdin: Which Plant response rating, Sedge, Umbrella value is on record for `CCn1nc(C(C)(C)C)cc1C(=O)Nc1cc(C(=O)N2CC=CC2)ccn1` ?
stdout: 90

---

Provide the recorded Plant response rating, Lambsquarters for the entries that follow.
System: lambsquarters
Assay: Test B pre-/postemergence herbicide test
Format: in vivo, Chenopodium album
Conditions: 500 g ai/ha; visual rating, 0 = no effect, 100 = complete control; preemergence

stdin: What is its Plant response rating, Lambsquarters for lambsquarters? Entry: CCn1nc(C(C)(C)C)cc1C(=O)Nc1cccc(OC(F)F)c1 [Compound 332]
stdout: 100

stdin: Query Plant response rating, Lambsquarters on lambsquarters for CCn1nc(C(C)(C)C)c(F)c1C(=O)Nc1cccc(C(=O)N(C)C)n1 [Compound 274]
stdout: 100

stdin: Give recorded Plant response rating, Lambsquarters with lambsquarters for the following molecule: CCNC(=O)c1ccc(OC)c(NC(=O)c2cc(C(C)(C)C)nn2CC)n1 [Compound 266]
stdout: 100

stdin: For lambsquarters, provide Plant response rating, Lambsquarters of CCc1nn(C2CCCC2)nc1C(=O)Nc1cccc(C(=O)N2CC=CC2)c1 [Compound 354] please.
stdout: 100

stdin: Lookup: Plant response rating, Lambsquarters / lambsquarters / CCc1nn(C(C)(C)C)cc1C(=O)Nc1cc(C(=O)N(CC)CC)ccc1F [Compound 223]
stdout: 100

stdin: So what Plant response rating, Lambsquarters did C=CCN(C)C(=O)c1cccc(NC(=O)c2cc(C(C)(C)C)nn2CC)c1 [Compound 285] get with lambsquarters?
stdout: 100

stdin: Fill in the recorded Plant response rating, Lambsquarters for this molecule, with lambsquarters as test system: C#CCOC(=O)c1cccc(NC(=O)c2cc(C(C)(C)C)nn2C)n1 [Compound 317]
stdout: 0

stdin: What reported Plant response rating, Lambsquarters corresponds to CCc1nn(C(C)(C)C)cc1C(=O)Nc1ccc(F)c(C(=O)N(CC)CC)c1 [Compound 240] on lambsquarters?
stdout: 80

---

Please go through the items and note down their Sedge, Umbrella plant response rating.
System: smallflower umbrella sedge
Assay: Test C flooded paddy test
Assay type: in vivo, Cyperus difformis
Details: 250 g ai/ha, scale of 0 to 100, 0 is no effect, 100 is complete control
// no unit string in output, number only

stdin: Notebook entry, smallflower umbrella sedge assay: Sedge, Umbrella plant response rating of `CCc1nn(C(C)C)nc1C(=S)Nc1cccc(C(=S)N(C)C)c1` = ?
stdout: 80

stdin: For the record `CCn1nc(C(C)(C)C)cc1C(=O)Nc1cccc(OC(F)F)c1` , what value of Sedge, Umbrella plant response rating is listed for smallflower umbrella sedge?
stdout: 85

stdin: # query: Sedge, Umbrella plant response rating | item `CCc1nn(C(C)(C)C)cc1C(=O)Nc1cc(C(=O)N(CC)CC)ccc1F` | system: smallflower umbrella sedge
stdout: 65

stdin: Observed Sedge, Umbrella plant response rating on smallflower umbrella sedge for `CCn1nc(C(C)(C)C)cc1C(=O)Nc1cc(C(=S)N(C)C)ccc1F` , please.
stdout: 90

stdin: Kindly state the measured Sedge, Umbrella plant response rating obtained for `CCOC(=O)c1cc(NC(=O)c2cc(C(C)(C)C)nn2CC)ccc1OC` with smallflower umbrella sedge.
stdout: 90

stdin: Param readout = Sedge, Umbrella plant response rating; param system = smallflower umbrella sedge; param query = `Cc1nn(C(C)(C)C)nc1C(=O)Nc1cccc(C(=O)N2CC=CC2)c1` ; response: value
stdout: 80

stdin: I'm curious: which Sedge, Umbrella plant response rating was measured for `CC(=NO)c1cccc(NC(=O)c2cc(C(C)(C)C)nn2CCF)c1` tested on smallflower umbrella sedge?
stdout: 90

stdin: Request body: readout Sedge, Umbrella plant response rating, system smallflower umbrella sedge, query `CCn1nc(C(C)(C)C)cc1C(=O)Nc1cccc(C(N)=O)n1` . Return the value.
stdout: 75

stdin: Value wanted: Sedge, Umbrella plant response rating (smallflower umbrella sedge) of entry `CCc1nn(C(C)(C)C)cc1C(=O)Nc1cc(C(=O)N(C)C)ccn1`
stdout: 80

stdin: Request body: readout Sedge, Umbrella plant response rating, system smallflower umbrella sedge, query `CCOC(=O)c1cncc(NC(=O)c2cc(C(C)(C)C)nn2CC)c1` . Return the value.
stdout: 35

stdin: smallflower umbrella sedge / Sedge, Umbrella plant response rating / `CCc1nn(C(C)(C)CC)nc1C(=O)Nc1cc(C(=O)N(C)C)ccc1F` : value?
stdout: 75

---

Test system: barnyardgrass
Experiment: Test B pre-/postemergence herbicide test
Type: in vivo, Echinochloa crus-galli
Conditions: 500 g ai/ha; visual rating, 0 = no effect, 100 = complete control; preemergence
Measured quantity: Plant response rating, Barnyardgrass
// response body must contain only the number

stdin: Item CCn1nc(C(C)(C)C)cc1C(=O)Nc1cc(C(=O)N(C)C)c(F)cc1F [Compound 270] has what recorded Plant response rating, Barnyardgrass?
stdout: 50

stdin: Entry CCNC(=O)c1cccc(NC(=O)c2nn(C(C)(C)C)cc2Cl)c1 [Compound 219] : reported Plant response rating, Barnyardgrass = ?
stdout: 20

stdin: // Plant response rating, Barnyardgrass lookup, key: CCN(C)C(=O)c1cncc(NC(=O)c2cc(C(C)(C)C)nn2CC)c1 [Compound 263]
stdout: 40

stdin: Plant response rating, Barnyardgrass for CCn1nc(C(C)(C)C)cc1C(=O)Nc1cncc(C(=O)N(C)C)c1 [Compound 258] ?
stdout: 90

stdin: For the compound shown here, CCn1nc(C(C)(C)C)cc1C(=O)Nc1cc(OC)ccc1F [Compound 347] , give the reported Plant response rating, Barnyardgrass.
stdout: 0

---

Tested on: large crabgrass
Assay: Test A pre-/postemergence herbicide test
Assay type: in vivo, Digitaria sanguinalis
Conditions: Preemergence, 2000 g ai/ha; visual rating, 0 to 100 scale (0 no effect, 100 complete control)
Exercise: for every item that follows, state its recorded Crabgrass, Large plant response rating.
Please give the numeric answer without any surrounding text.

stdin: What value of Crabgrass, Large plant response rating has been recorded for this entry: `CCn1nc(C(C)(C)C)cc1C(=O)Nc1cc(C(=O)OC)cc(C)n1`
stdout: 15

stdin: Value lookup for Crabgrass, Large plant response rating; key = `CCn1nc(C(C)(C)C)cc1C(=O)Nc1cc(C(=O)N(C)C)c(F)cc1F`
stdout: 35

stdin: Can you share its Crabgrass, Large plant response rating? I mean this compound: `CC(=NO)c1cc(NC(=O)c2cc(C(C)(C)C)nn2C)ccc1F`
stdout: 95

stdin: Crabgrass, Large plant response rating for `CCNC(=O)c1cccc(NC(=O)c2sc(C(C)(C)C)nc2CC)n1` ?
stdout: 95

stdin: Sample `C=Cn1nc(C(C)(C)C)cc1C(=O)Nc1cccc(C(C)=NO)c1` — what was its Crabgrass, Large plant response rating?
stdout: 85

---

Tested on: rice
Assay: Test C flooded paddy test
Type: in vivo, Oryza sativa
Conditions: 62 g ai/ha, scale 0 to 100
For each record, write down the corresponding Rice plant response rating.

stdin: Data request, read-out Rice plant response rating, for `CCOC(=O)c1cncc(NC(=O)c2cc(C(C)(C)C)nn2CC)c1`
stdout: 0

stdin: Please look up its Rice plant response rating: `CCn1nc(C(C)(C)C)cc1C(=S)Nc1cc(C(=S)N(C)C)ccc1F`
stdout: 75

stdin: Given the entry CCOC(=O)c1ccc(F)c(NC(=O)C2CN(C(C)(C)C)N=C2CC)c1 (racemic) , report its measured Rice plant response rating.
stdout: 25

stdin: Which Rice plant response rating reading was recorded for the compound `CCn1nc(C(C)(C)C)cc1C(=O)Nc1cncc(C(=O)N(C)C)c1` ?
stdout: 0

stdin: # query: Rice plant response rating of entry `CCn1nc(C(C)(C)C)cc1C(=O)Nc1cc(C(=S)N(C)C)ccn1`
stdout: 70

stdin: Request the reported Rice plant response rating associated with `CCn1nc(C2(C)CC2)cc1C(=O)Nc1cccc(C(=O)N(C)C)c1`
stdout: 30

stdin: What value of Rice plant response rating has been reported for the following compound? `CCOC(=O)c1cccc(NC(=O)c2cc(C(C)(C)C)nn2C)n1`
stdout: 0

stdin: What value of Rice plant response rating has been recorded for this entry: CCN(C)C(=O)c1ccc(F)c(NC(=O)C2CC(C(C)(C)C)=NN2CC)c1 (racemic)
stdout: 55

Just for reference, patent US20060069132A1 is where these values come from.
